# targetOrSystem: T1, ADD domain of ATRX (ATRXADD) (UniProt P46100 159-296)
# T1 construct: ATRX, N-terminal ADD (ATRX-DNMT3-DNMT3L) domain; plasmid pGEX-GP-2-ATRX ADD from Addgene; that it comes from the GST fusion and not from the His-tagged one is surmised; also called ATRX-DNMT3-DNMT3L domain; source: E. coli BL21, purified (spin column, on-column thrombin cleavage)
# T1 sequence (looked up): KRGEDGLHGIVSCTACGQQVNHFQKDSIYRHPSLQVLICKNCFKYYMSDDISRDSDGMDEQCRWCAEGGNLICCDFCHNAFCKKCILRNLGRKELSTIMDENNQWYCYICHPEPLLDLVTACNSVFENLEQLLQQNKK
# experimentDescription: fluorescence polarisation; competition: ATRXADD (5 μM) and H3_(1-15)K9me3-FAM (0.75 μM) incubated 15 minutes at room temperature, then unlabeled peptide at varying concentrations; PBS; 384-well plate
# protocolConditions: both partners purified
Where no end group is shown, it is not given here. [ ]: non-standard residue; d: D form. Lys(Me3) = C[N+](C)(C)CCCC[C@H](N)C(=O)O
quantityMeasured: IC50 (µM)

Solved cases below.
ARTKQTARKS (histone H3 tail; source: bought: GenScript) [H3_(1-10) peptide] : 94.8
LRTKQTAR[Lys(Me3)]ST (histone H3 tail with A1 replaced; source: bought: GenScript) [H3_(1-11) A1L peptide] : 5.05

(a) VRTKQTAR[Lys(Me3)]ST (histone H3 tail with A1 replaced; source: bought: GenScript) [H3_(1-11) A1V peptide]
(b) ARTKQTARKSTGGKAY (histone H3 tail; source: bought: GenScript) [H3_(1-16) peptide]
(c) ARTKQTARKST (trimethyl-lysine at 9, printed K(me3), histone H3 tail; source: bought: GenScript) [H3_(1-11)K9me3 peptide]
Input line: Put the items in sequence by IC50, from largest down. Write the labels, ordered according to the request.
Output line: b, c, a
(b: 85.8 µM, c: 7.6 µM, a: 4.3 µM)
